# Test system: biotinyl-Val-oxazolone
# assay explanation: self-aminoacylation, catalytic enhancement (BVO) (fold over background); higher = more active; k-Seq, kA / k0A0; sequences stand for … in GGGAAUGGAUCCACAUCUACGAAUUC…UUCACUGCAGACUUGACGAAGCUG
Fewer inactive variants are shown than the library holds.
endpoint label: self-aminoacylation
In your answer, state the number alone without any accompanying words.

Return self-aminoacylation measured with biotinyl-Val-oxazolone given this sequence: CCAUACUUCAAGGAAUCGGUC [Fam1B.1 aminoacylation ribozyme variant]
0.934

Item: CCACUAUUCAAGCAAUCGGUC [Fam1B.1 aminoacylation ribozyme variant]
1.09

Similarly, AUUACCCUGGUCAUCGCGUGU [Fam2.1 aminoacylation ribozyme variant] ?
4.84

Same read-out for AAGUAUGCUAAUAGACGCAAG [Fam3.1 aminoacylation ribozyme variant] ?
0.637

Again, but for CUACUUCGAACAAUCCGUCUG [Fam1A.1 aminoacylation ribozyme variant]
0.745

What do you get for AAGUUUGCUAAUACUCGCUAG [Fam3.1 aminoacylation ribozyme variant] ?
0.507

Next sequence: CUACUUCGAACACUCGGUCUG [Fam1A.1 aminoacylation ribozyme variant]
1.18

Quick one: AUUACCCUGGCCAUCUAGUGA [Fam2.1 aminoacylation ribozyme variant]
2.79

What about CUUCUUCAAACACUCGGUCUG [Fam1A.1 aminoacylation ribozyme variant] ?
0.977

Entry CCACACUUCAAUCAAUCGGUA [Fam1B.1 aminoacylation ribozyme variant] please
0.849

Please answer likewise for AUUCAGUUAGGUCAUCGGGUG [Fam2.2 aminoacylation ribozyme variant]
3.12

Moving on to the next sequence: AAGUUUGCUAAUCGUCGCUAG [Fam3.1 aminoacylation ribozyme variant]
0.834

// query: CCACACUGGAAGCAAUCGGUC [Fam1B.1 aminoacylation ribozyme variant]
1.08

For AAGAUUGCUAAUAGUCGCGAG [Fam3.1 aminoacylation ribozyme variant] then?
1.44

Field entry: CCACACUUCAAGCUAUUGGUC [Fam1B.1 aminoacylation ribozyme variant]
0.759

Record: CCACACUUCAAGAUAUCGGUC [Fam1B.1 aminoacylation ribozyme variant]
0.795

// query: UAGUCUGCUAAUAGUCGCAAG [Fam3.1 aminoacylation ribozyme variant]
1.81

Same again, this time with AUUCACCGAAGUCAUCGGGUG [Fam2.2 aminoacylation ribozyme variant]
9.73

Do the same for UUACUUGAAACAAUCGGUCUG [Fam1A.1 aminoacylation ribozyme variant] please
1.03

Cool, now AAAUUUGCUAAUAGUCGCAGG [Fam3.1 aminoacylation ribozyme variant]
1.79

Then what about the sequence AGUACCCUGGCCAUCGAGUGA [Fam2.1 aminoacylation ribozyme variant] ?
3.11

Again, but for CUAUUUCAAACAACCGGUCUG [Fam1A.1 aminoacylation ribozyme variant]
0.861

// next record CUUACCGUGGUCAUCGAGUGA [Fam2.1 aminoacylation ribozyme variant]
2.68

Entry to check: AUUCACCUGGGUAAUCGGGUG [Fam2.2 aminoacylation ribozyme variant]
2.88

Field entry: CCACACUUCAAGCAACCGGAC [Fam1B.1 aminoacylation ribozyme variant]
1.07

Consider next the sequence GUUACUCUGGUCAUCGAGUGA [Fam2.1 aminoacylation ribozyme variant] in the same way.
4.18

Quick one: CUACUACAAACAAUCGGUCAG [Fam1A.1 aminoacylation ribozyme variant]
0.646

====

# Tested on: biotinyl-Val-oxazolone
# assay explanation: self-aminoacylation, catalytic enhancement (BVO) (fold over background); higher = more active; k-Seq, kA / k0A0; sequences stand for … in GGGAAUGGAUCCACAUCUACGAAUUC…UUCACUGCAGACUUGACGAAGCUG
Fewer inactive variants are shown than the library holds.
self-aminoacylation of 1 or higher: 1. Under 1: -1.

Confirm if self-aminoacylation reported for the sequence AAGUUGGUUAAUAGUCGCAAG [Fam3.1 aminoacylation ribozyme variant] is 1 or above.
1

Lookup AAGUAUGUUAAUAGUCGCAAG [Fam3.1 aminoacylation ribozyme variant]
1

Can you handle AAGUUUGGUAAGAGUCGCAAG [Fam3.1 aminoacylation ribozyme variant] next?
1

Now give it for CCACAAUUCAAGCAAUCUGUC [Fam1B.1 aminoacylation ribozyme variant] too.
-1

Let us now turn to AUUACCCUGGGCAUCGAAUGA [Fam2.1 aminoacylation ribozyme variant]
-1

Now this one: CCACACGUCAGGCAAUCGGUC [Fam1B.1 aminoacylation ribozyme variant]
1

And CUACUUCUAACAAUCGGCCUG [Fam1A.1 aminoacylation ribozyme variant] ?
1

Entry CUAAUUCAAACAAUCGGUGUG [Fam1A.1 aminoacylation ribozyme variant] please
-1

Now this one: CUACUUCUAACAAUCGAUCUG [Fam1A.1 aminoacylation ribozyme variant]
-1

Here is the next sequence: AUUACCCUGGUCACCGAGUGG [Fam2.1 aminoacylation ribozyme variant]
1

Item: CUACUUCAAACCAUAGGUCUG [Fam1A.1 aminoacylation ribozyme variant]
-1

Can you handle CCAGAAUUCAAGCAAUCGGUC [Fam1B.1 aminoacylation ribozyme variant] next?
1

Repeat for the following sequence: CUACUUCAAACAAUCGCUCUU [Fam1A.1 aminoacylation ribozyme variant]
-1

Repeat with CUACUUCAAACAACCGGCCUG [Fam1A.1 aminoacylation ribozyme variant]
1

What about CCACACUUCAAGCGAUCAGUC [Fam1B.1 aminoacylation ribozyme variant] ?
-1

Please answer likewise for CCACACUUCAUGCAAUCGGGC [Fam1B.1 aminoacylation ribozyme variant]
1

Request: AUUACCCAGAUCAUCGAGUGA [Fam2.1 aminoacylation ribozyme variant]
1

Similarly, AUUCCCCUAGGUCACCGGGUG [Fam2.2 aminoacylation ribozyme variant] ?
1

Cool, now AUUCACCUUGGUCAUCUGGUG [Fam2.2 aminoacylation ribozyme variant]
1

Item: CUACUUCAAACAUUCCGUCUG [Fam1A.1 aminoacylation ribozyme variant]
1

Here is the next sequence: AUUCAGCUAGGUCAUUGGGUG [Fam2.2 aminoacylation ribozyme variant]
1

Now the sequence AAACACCUAGGUCAUCGGGUG [Fam2.2 aminoacylation ribozyme variant]
1

Queued: AAGUGUGCUACUAGUCGCAAG [Fam3.1 aminoacylation ribozyme variant]
1

Further, for AUUGCUCUGGUCAUCGAGUGA [Fam2.1 aminoacylation ribozyme variant] ?
1

Further, for AUUACCCUGGUUAUCGAGGGA [Fam2.1 aminoacylation ribozyme variant] ?
1

====

I'd appreciate it if you could supply self-aminoacylation values for the items below.
# System: biotinyl-Ile-oxazolone
# assay explanation: self-aminoacylation, catalytic enhancement (BIO) (fold over background); higher = more active; k-Seq, kA / k0A0; sequences stand for … in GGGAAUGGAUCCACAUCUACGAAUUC…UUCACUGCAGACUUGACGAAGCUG
Variants at the floor of the assay were thinned out.
Lab note: write the figure by itself, no unit.

Could you tell me which self-aminoacylation is on file for AUUACCCUGGUCAACGAGUGG [Fam2.1 aminoacylation ribozyme variant] ?
1.04

Now consider CCACACUUCAAGCGAUCGGAC [Fam1B.1 aminoacylation ribozyme variant] and answer again.
1.22

Continue with UCACACUUCACGCAAUCGGUC [Fam1B.1 aminoacylation ribozyme variant]
1.03

Try this sequence too: AUUGCCCUGGUCAUAGAGUGA [Fam2.1 aminoacylation ribozyme variant]
4.05

Moving on to CCUUACUUCAAGCAAUCGGUC [Fam1B.1 aminoacylation ribozyme variant]
1.09

Check AACUUUGCUAAUAGUUGCAAG [Fam3.1 aminoacylation ribozyme variant] too.
2.21

Further, for AUUACCCUCGUCAUCGCGUGA [Fam2.1 aminoacylation ribozyme variant] ?
3.63

Proceed to CCACACUUCAAGCAAUCAGUA [Fam1B.1 aminoacylation ribozyme variant]
0.983

Then what about the sequence AGUCACCUAGCUCAUCGGGUG [Fam2.2 aminoacylation ribozyme variant] ?
2.6

And the next one, GCACACGUCAAGCAAUCGGUC [Fam1B.1 aminoacylation ribozyme variant] ?
2.63

Would you mind doing CCACACUUGACGCAAUCGGUC [Fam1B.1 aminoacylation ribozyme variant] as well?
1.4

====

# System: biotinyl-Trp-oxazolone
# assay explanation: self-aminoacylation, catalytic enhancement (BWO) (fold over background); higher = more active; k-Seq, kA / k0A0; sequences stand for … in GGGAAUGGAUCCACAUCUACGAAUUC…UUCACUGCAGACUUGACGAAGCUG
Fewer inactive variants are shown than the library holds.
endpoint label: self-aminoacylation
Enter a number only.

Fill in: self-aminoacylation of AAGUUCGCUACUAGUCGCAAG [Fam3.1 aminoacylation ribozyme variant] is ___
1.34

Another sequence to check: AAGUCUGCUAAUAGUCUCAAG [Fam3.1 aminoacylation ribozyme variant]
4.59

Input AUUCUCCUAGGUCCUCGGGUG [Fam2.2 aminoacylation ribozyme variant]
7.62

Same for CGACUUCAAACAGUCGGUCUG [Fam1A.1 aminoacylation ribozyme variant]
1.98

AUUUUCCUAGGUCAUCGGGUG [Fam2.2 aminoacylation ribozyme variant] , same question.
6.89

Here is the next sequence: AACAUUGCUAAUAGUCGCAAG [Fam3.1 aminoacylation ribozyme variant]
2.67

Now consider AAGCUUGCUAAUAGUCGGAAG [Fam3.1 aminoacylation ribozyme variant] .
1.65

Next entry: AUUCCCCUAGGUCCUCGGGUG [Fam2.2 aminoacylation ribozyme variant]
24.6

Could you do the same for CACCUUCAAACAAUCGGUCUG [Fam1A.1 aminoacylation ribozyme variant] , please?
43.9

Also, UCACACUUCAAGGAAUCGGUC [Fam1B.1 aminoacylation ribozyme variant] please.
3.91

Also check AAGUUUGCGAAUAGUCGCAGG [Fam3.1 aminoacylation ribozyme variant]
2.44

Moving on to the next sequence: AUUCACAUAGGUCAACGGGUG [Fam2.2 aminoacylation ribozyme variant]
4.39

Quick one: AUUCAUCUAGGUCACCGGGUG [Fam2.2 aminoacylation ribozyme variant]
5.32

What about this sequence? CUACUUCAAACACUCGUUCUG [Fam1A.1 aminoacylation ribozyme variant]
0.444

How about this sequence: CCACACUUCAACCGAUCGGUC [Fam1B.1 aminoacylation ribozyme variant]
5.96

Next sequence: CCAUACUUCAAACAAUCGGUC [Fam1B.1 aminoacylation ribozyme variant]
30.3

Check AUUACCCUGGUCAUGGAGUGG [Fam2.1 aminoacylation ribozyme variant] too.
2.54

Would you kindly repeat that for AUUACCCUCGUCAACGAGUGA [Fam2.1 aminoacylation ribozyme variant] ?
2.82

Same thing, different sequence: AUUACCCUGUCCAUCGAGUGA [Fam2.1 aminoacylation ribozyme variant]
14.8

What would you report for AGUCACCUAGCUCAUCGGGUG [Fam2.2 aminoacylation ribozyme variant] ?
2.81

And the next one, CAUCACUUCAAGCAAUCGGUC [Fam1B.1 aminoacylation ribozyme variant] ?
15.6

// repeat for AAACUUGCUAAUAGUCGCAAG [Fam3.1 aminoacylation ribozyme variant] and report
4.6

Moving on to the next sequence: AUUACCCUGGUCACAGAGUGA [Fam2.1 aminoacylation ribozyme variant]
9.52

Follow-up entry: CUGCUUCAAACAAUCUGUCUG [Fam1A.1 aminoacylation ribozyme variant]
1.53

How about this sequence: CCACACGUCAAACAAUCGGUC [Fam1B.1 aminoacylation ribozyme variant]
1.83

Also need CCCCACUUCUAGCAAUCGGUC [Fam1B.1 aminoacylation ribozyme variant] , thanks.
2.23

Another sequence to check: CCACCCUUAAAGCAAUCGGUC [Fam1B.1 aminoacylation ribozyme variant]
1.4

Would you kindly repeat that for AAGUUCGCUAAUAGUCGCAGG [Fam3.1 aminoacylation ribozyme variant] ?
2.2

One more sequence: CCACAGUUCAAGCAAUCCGUC [Fam1B.1 aminoacylation ribozyme variant]
1.04

Now give it for AUUACCCUGUUCAUGGAGUGA [Fam2.1 aminoacylation ribozyme variant] too.
11.8

Now give it for CCACUUCAAAUAAUCGGUCUG [Fam1A.1 aminoacylation ribozyme variant] too.
15.2
